test: cell viability in Huh7 cells, primary screen, cytotoxicity control for HCV replication inhibitor project, CellTiter-Glo luminescence, basal, 48 h (AID 1143); details: Huh7 HCV replicon, higher = more signal, called active from +8 up or from −8 down;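 also: Huh7 hepatoma cells carrying a hepatitis C replication reporter with no stimulus; test concentration not given here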
Activity calls are given as the source filed them.
Hi there, I'd appreciate the recorded z-score for every entry that follows.

Example results:
COCCCNC(=O)[C@@]1(Sc2ccc(C)cc2)CC(=O)N(Cc2ccccc2)[C@@H]1c1ccc(CO)cc1I	-1.25 (inactive)
CC(=O)O[C@H]1C2=C(C(=O)[C@@H]3O[C@@H]31)[C@H]1C(C)O[C@@H]2[C@@]23C(=O)[C@@H]4O[C@@H]4[C@@H](O)C2=CO[C@H](C)[C@@H]13 (some centres undefined)	-1.6 (inactive)
C[C@@H](c1ccccc1)N1C(=O)[C@H]2[C@H]3[C@H](O)[C@H](O)CC(=NNC(=O)OCc4ccccc4)[C@H]3CC[C@H]2C1=O	-0.0242 (inactive)
CO[C@@H]1COC(=O)CC=C[C@@H](C)[C@@H]2C=C[C@H](O)[C@@H](COC(=O)CCC[C@H]1C)O2	-0.493 (inactive)
CC(C)OC(=O)C=C1C[C@@H](c2ccc(C#N)cc2)O[C@@H](c2ccc(C#N)cc2)O1	-2.6 (inactive)

Give me z-score for each of these molecules, listed below.
1. O=C1[C@H]2[C@H]3[C@H](O)[C@H](O)CC(=NOCc4ccccc4)[C@H]3CC[C@H]2C(=O)N1c1cccc(Oc2ccccc2)c1
2. CCc1cc2c(nc1CC)CCN(CCC(C)=NOC[C@@H](O)[C@H]1O[C@@H]3OC(C)(C)O[C@@H]3[C@H]1O)C2

**A:**
-2.26 (inactive)
0.731 (inactive)
